# target-or-test-system: Glucose transporter (Leishmania mexicana)
# experimental-details: ST_JUDE_LEISH: Cytotoxicity at 2uM final concentration against transgenic Leishmania Mexicana promastigotes LmGT2 that are glucose transport deficient and complemented with the L. Mexicana glucose transporter 2. Activity is measured by DNA content using SYBR green in vitro
# Format: functional
Overview of recorded inhibition for various compounds
Numbers only here, please. The scale is %.

Recorded results for 10 compounds are shown here.
Cc1[nH]c2ccc(O)cc2c1C1CCN(CC2CCN(C(=O)/C=C/c3ccc(Cl)c(Cl)c3)CC2)CC1 = -0.96
CC(=O)C1(c2ccccc2)CCN(CCC2(c3ccc(Cl)c(Cl)c3)CN(C(=O)Nc3cc(F)cc(F)c3)CCO2)CC1 (stereo not given) = -0.62
O=C(Cc1c(-c2ccccc2)[nH]c2ccccc12)NC1CCC(CN2CCC(c3c[nH]c4ccccc34)CC2)CC1 (stereo not given) = 2.03
Oc1cc2c(cc1CN1CCN(Cc3ccccc3)CC1)CCC2 = -1.19
CC(=O)Nc1ccc(CN2CCC(N(C)c3cc(NC(=O)c4ccc(F)cc4)ccn3)CC2)cc1 = 2.53
CC[C@H]1CN2CC[C@H]1C[C@H]2[C@H](O)c1cc(/C=C/c2ccccc2)nc2ccc(OC)cc12 = -0.2
N#Cc1ccc(N(CCCO)Cc2ccccc2C(F)(F)F)cc1C(F)(F)F = -0.99
Cc1ccc(C[C@@H](C)NC[C@H](O)c2cccc(C(F)(F)F)c2)cc1 = 2.92
CCCCCC(C)C(C)c1cc(O)c2c(c1)OC1(C(C)C)CC(O)C(C)C2C1 (stereo not given) = 6.4
O=C(/C=C/c1ccc(Cl)c(Cl)c1)N1CCC(CN2CCC(c3c[nH]c4ccc(O)cc34)CC2)CC1 = 4.21

Given COC(=O)c1ccc(CC(C)NCC(O)c2cccc(C(F)(F)F)c2)c(Cl)c1 (stereo not given) , respond with its inhibition.
3.39

Given CCCN(CC(=O)NCCc1ccccc1)c1ccc(C#N)c2ccccc12 , respond with its inhibition.
1.66

Given COc1ccc(CCNCc2ccc3nc(N)cc(C)c3c2)cc1 , respond with its inhibition.
-2.66

Given Cc1cc(N(C)C2CCN(C)CC2)nc(Nc2ccc(Cl)cc2)n1 , respond with its inhibition.
-0.95

Given O=C(/C=C/c1ccc(Cl)c(Cl)c1)NC1CCC(CN2CCC(c3c[nH]c4ccccc34)C(O)C2)CC1 (stereo not given) , respond with its inhibition.
4.19

Given Cc1cccc(N2CCN(Cc3cc(Cl)ccc3O)CC2)c1C , respond with its inhibition.
3.25

====

# target-or-test-system: Hexose transporter 1 (Plasmodium falciparum) (UniProt O97467)
# experimental-details: ST_JUDE_LEISH: Cytotoxicity at 2uM final concentration against transgenic Leishmania Mexicana promastigotes LmPfHT that are glucose transport deficient and complemented with the Plasmodium falciparum hexose transporter. Activity is measured by DNA content using SYBR green in vitro
# Type: functional
# cutoff 2% applies to inhibition; >= gives yes (1), < gives no (0)

COc1ccc(CC(C)NCC(O)c2cccc(C(F)(F)F)c2)cc1F (stereo unspecified) = no (0)
CC[C@H]1CN2CC[C@@H]1C[C@H]2[C@H](O)c1cc(-c2c(C)noc2C)nc2ccc(OC)cc12 = yes (1)
Cc1ccc(C)c(N2CCN(Cc3ccccc3O)CC2)c1 = no (0)
O=C(C=Cc1ccc(Br)cc1)NC1CCC(CN2CCC(c3c[nH]c4ccccc34)CC2)CC1 (stereo unspecified) = yes (1)
CC(=O)Nc1ccc(CN2CCC(N(C)c3cc(NC(=O)c4cccs4)ccn3)CC2)cc1 = no (0)

Determine whether measured inhibition meets or exceeds 2% for CN1CC=C(c2c[nH]c3ccc(-c4ccccc4)cc23)CC1
yes (1)

Determine whether measured inhibition meets or exceeds 2% for CC(C)CN1CCC(N(C)c2cc(NC(=O)c3cccc(F)c3)ccn2)CC1
no (0)

Determine whether measured inhibition meets or exceeds 2% for CC(C)CNCc1cccc(-c2ccc(CN(C(=O)c3cccs3)C3CCN(Cc4ccccc4)CC3)cc2)c1
yes (1)

Determine whether measured inhibition meets or exceeds 2% for Cc1ccc(C[C@@H](C)NC[C@H](O)c2cccc(C(F)(F)F)c2)cc1
yes (1)

Determine whether measured inhibition meets or exceeds 2% for CC[C@H]1CN2CC[C@H]1C[C@H]2[C@H](O)c1cc(-c2ccccc2F)nc2ccc(OC)cc12
no (0)

Determine whether measured inhibition meets or exceeds 2% for CCCCCc1cc(O)c2c3c(c(=O)oc2c1)CN(C)CC3
yes (1)
